Test: MELAS cybrid and Rieske KO viability enhancers – cell-based, MELAS cybrids, Rieske KO mouse fibroblasts, CellTiter-Glo, primary screen (AID 1508586);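 also: test concentration not given here; z relative to plate mean and SD of compound and empty wells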
Settings: MELAS cybrid survival, low glucose, CellTiter-Glo 48 h; active compounds read high
So I've got a bunch of molecules here, and I need their z-score values.
Give the value as a plain number.

Name the reported z-score value associated with the molecule COCc1ccc(C(=O)N2CCc3c(cc(-c4ccncc4)c(=O)n3CCN3CCCCC3)C2)o1
-0.345

Name the reported z-score value associated with the molecule CC1(C)S[C@H]2C(NC(=O)C(NC(=O)N3CCN(S(C)(=O)=O)C3=O)c3ccccc3)C(=O)N2C1C(=O)O (stereo partly drawn)
-0.292

Name the reported z-score value associated with the molecule CC(NC(=O)Cc1cc(F)cc(F)c1)C(=O)NC1C(=O)N(C)c2ccccc2-c2ccccc21 (stereo not drawn)
-0.38

Name the reported z-score value associated with the molecule COC(=O)c1c(NC(=O)c2ccoc2)c2cc(NC(C)CSC)cnc2n1Cc1ccccc1 (stereo not drawn)
-1.27

Name the reported z-score value associated with the molecule C[C@@H]1COc2c(N3CCN(C)CC3)c(F)cc3c(=O)c(C(=O)O)cn1c23
-0.0742

Name the reported z-score value associated with the molecule COc1ccc(-c2[nH]ncc2CN2CCC3(CC2)C(=O)N(C(C)C)C(=O)N3CCC(C)C)cc1
0.0083

Name the reported z-score value associated with the molecule CC(=O)c1sc(Nc2ccccc2)nc1C
3.09

Name the reported z-score value associated with the molecule Cc1cc(NC(=O)Cn2cc(-c3cccc4cccnc34)cn2)n(C)n1
-0.478

Name the reported z-score value associated with the molecule Cc1ccc(-c2c(-c3nn(C)c4ncnc(N5CCC(N6CCCCC6)C5)c34)cnn2C)cc1 (stereo not drawn)
-0.254

Name the reported z-score value associated with the molecule C=C1CC[C@H](O)C/C1=C/C=C1\CCC[C@]2(C)[C@@H]([C@H](C)CCCC(C)(C)O)CC[C@@H]12
0.872

Name the reported z-score value associated with the molecule CSc1n[nH]c(-c2ccc(Cl)cc2)n1
1.97

Name the reported z-score value associated with the molecule Cc1ccccc1CN[C@H]1C[C@H]2C(=O)N[C@@H]([C@@H](C)O)C(=O)N2C1
0.0812

Name the reported z-score value associated with the molecule COc1ccc(CCNC2CCc3c(c(C(=O)N(C)C)nn3CC3CCCCC3)C2)cc1 (stereo not drawn)
-0.342

Name the reported z-score value associated with the molecule O=C(CSc1nc2c(c(=O)n1-c1ccccc1)SCC2)Nc1ccc(-c2ccccc2)cn1
-0.49

Name the reported z-score value associated with the molecule CC1C(=O)O[C@H]2C(O)C34C5CC(C(C)(C)C)C36C(O)C(=O)O[C@H]6O[C@]4(C(=O)O5)[C@@]12O (stereo partly drawn)
-0.353

Name the reported z-score value associated with the molecule CCOc1ccc(Cc2cc(C3OC(CO)C(O)C(O)C3O)ccc2Cl)cc1 (stereo not drawn)
0.52

Name the reported z-score value associated with the molecule CN(C)C(=O)CN(C)C(=O)c1cccc(Nc2ncnc3c2cnn3C)c1
0.0352

Name the reported z-score value associated with the molecule CC(C)[C@@H]1NC(=O)[C@@H]2C[C@H](NC(=O)OCc3ccccc3)CN2C1=O
-0.138
